system: HCT-116; assay: Cytotoxicity against human HCT-116 cells by MTT assay; type: functional, cell-based
I'd be grateful if you could share measured pIC50 for these entries.
Note: pIC50 values are expressed as the negative base-10 logarithm of concentration in M.

Prompt: Looking for the measured pIC50 of CCC1=C(C)C2=C(c3ccccc3)c3ccc(NCCNCC(=O)c4ccc(OS(=O)(=O)c5ccccc5)cc4OS(=O)(=O)c4ccccc4)n3[B-](F)(F)[N+]2=C1C , can you help?
Response: 4.03

Prompt: Looking for the measured pIC50 of CCC1=C(C)C2=C(c3ccccc3)c3ccc(NCCNCC(=O)c4ccc(OS(C)(=O)=O)cc4OS(C)(=O)=O)n3[B-](F)(F)[N+]2=C1C , can you help?
Response: 3.99
